System: upland rice (Oryza sp., var. Tebonnet, RICE)
Test: Post-emerge test, crop safety
Type: in vivo
Details: 250 g ai/ha; post-emerge; 14 days after application; rating scale 0-100
Experimental: A standard greenhouse herbicide activity screening system was used to evaluate the herbicidal efficacy and crop safety of these test compounds. […] At 14 days after application of the test materials, phytotoxicity ratings were recorded. […]
reported_endpoint: Post-emerge Herbicidal Activity RICE (crop damage rating)
Give bare numbers.

Example results:
>>> observed_value("COc1c(Cl)cc(F)c(-n2c(=O)cc(C(F)(F)F)n(C)c2=O)c1NNC(=O)c1ccccc1")
90
>>> observed_value("Cn1c(C(F)(F)F)cc(=O)n(-c2c(O)cc(Cl)cc2Cl)c1=O")
10
>>> observed_value("COc1c(Cl)cc(F)c(-n2c(=O)cc(C(F)(F)F)n(C)c2=O)c1NNC(=O)Nc1ccc(F)cc1F")
60
>>> observed_value("CCOC(=O)N(C)C(=O)NNc1c(OC)c(Cl)cc(F)c1-n1c(=O)cc(C(F)(F)F)n(C)c1=O")
90
>>> observed_value("COc1c(Cl)cc(F)c(-n2c(=O)cc(C(F)(F)F)n(C)c2=O)c1NN=CC1CC1")
99

Dear colleague, could you send me Post-emerge Herbicidal Activity RICE (crop damage rating) for each of the items below? Thanks.
1. Cn1c(C(F)(F)F)cc(=O)n(-c2c(Cl)cc(Cl)cc2OC(=O)c2ccc(F)cc2F)c1=O
2. COc1c(Cl)cc(F)c(-n2c(=O)cc(C(F)(F)F)n(C)c2=O)c1NNC(=O)c1ccc(F)cc1F
3. COc1c(Cl)cc(F)c(-n2c(=O)cc(C(F)(F)F)n(C)c2=O)c1NN=C(C(F)(F)F)C(F)(F)F
4. COc1c(Cl)cc(F)c(-n2c(=O)cc(C(F)(F)F)n(C)c2=O)c1NNC(=O)Oc1ccccc1

1: 0; 2: 95; 3: 90; 4: 90

====

system: redroot pigweed (Amaranthus retroflexus, AMARE); assay: Pre-emerge test, greenhouse herbicide activity screening; format: in vivo; conditions: pre-emerge, rate 250 g ai/ha, phytotoxicity rating 0-100 at 14 days after application
Task for the reader: assign each of the following compounds its reported Pre-emerge Herbicidal Activity AMARE.

Dear colleague, could you send me Pre-emerge Herbicidal Activity AMARE for each of the items below? Thanks.
1. COc1c(Cl)cc(F)c(-n2c(=O)n3n(c2=O)CCCC3)c1N
2. Cc1c(Cl)cc(F)c(-n2c(=O)cc(C(F)(F)F)n(C)c2=O)c1NC(=O)SCc1ccccc1
3. C=Cc1ccc(C(=O)Nc2c(OC)c(Cl)cc(F)c2N2C(=O)C3=C(CCCC3)C2=O)cc1
4. Cc1cccc(C)c1OC(=O)Nc1c(C)c(Cl)cc(F)c1-n1c(=O)cc(C(F)(F)F)n(C)c1=O

100
100
100
90

====

system: upland rice (Oryza sp., var. Tebonnet, RICE); assay: Post-emerge test, crop safety; format: in vivo; settings: Rate 250 g ai/ha; rating scale 0-100 (0 no damage, 100 complete death); 14 days after application
reported_endpoint: Post-emerge phytotoxicity rating RICE (crop damage)
Give bare numbers.

Example results:
>>> observed_value("CCOC(=O)C(Br)Cc1c(OC)c(Cl)cc(F)c1-n1c(=O)cc(C(F)(F)F)n(C)c1=O (single isomer, unassigned) [14-33]")
0
>>> observed_value("COc1c(Cl)cc(F)c(-n2c(=O)cc(C(F)(F)F)n(C)c2=O)c1CC(Cl)C(=O)OCCOc1ccccc1 (single isomer, unassigned) [14-27]")
0

State its Post-emerge phytotoxicity rating RICE (crop damage) on upland rice (Oryza sp., var. Tebonnet, RICE): COc1c(Cl)cc(F)c(-n2c(=O)cc(C(F)(F)F)n(C)c2=O)c1CC(Cl)C(=O)OCC(C)C (single isomer, unassigned) [14-15]
0
